- protocol-text: The maximum plasma concentration (12.5 mg/kg) administered intravenously in marmoset
- Format: ADME, organism-based
- Parameters: dose 12.5 mg/kg, route intravenous
- settings: callithrix, iv
measurement-name: Cmax (ng/mL)
Only the number, expressed in ng/mL, is required.

Look at this compound and give its reported Cmax. CS(=O)(=O)O.Cc1c(O)cccc1C(=O)N[C@@H](CSc1ccccc1)[C@H](O)CN1C[C@H]2CCCC[C@H]2C[C@H]1C(=O)NC(C)(C)C [NELFINAVIR MESYLATE] 5670
